# System: OVCAR-5 ovarian
# MEASUREMENT PROTOCOL: NCI tumour cell line growth inhibition, 48 h
VALUE TYPE: TGI (µM)
# number only, unit µM dropped from output

>>> readout_number("O=C1NC(N/N=C/c2ccccc2)=N/C1=C\\c1cccs1")
70.8

[in] Provide TGI value for the following compound: O=C1/C(=C/c2ccc(Cl)cc2)CN(Cc2cn(CCNc3ccnc4cc(Cl)ccc34)nn2)C/C1=C\c1ccc(Cl)cc1
[out] 1.62

###

# Tested on: NCI-H23 lung
# MEASUREMENT PROTOCOL: NCI tumour cell line growth inhibition, 48 h; in the data active means GI50 below about 0.43 µM; inactive means the rest
Classes to choose from: active, inactive

Worked examples, 8 compounds total:
>>> label_class("O=C(Nc1cccc([N+](=O)[O-])c1)c1ccc2ccccc2c1O")
"inactive"
>>> label_class("Cc1ccc(/C=C/C(=O)c2ccc(N)cc2)c(C)c1")
"inactive"
>>> label_class("N#Cc1c(NC(=O)c2cccc3ccccc23)sc2c1CCCC2")
"active"
>>> label_class("O=c1oc2ccc(F)cc2c(=O)n1-c1ccc(Cl)cc1F")
"inactive"
>>> label_class("COc1ccc(Cn2cc3c(c2-c2ccc(O)cc2)CCc2cnoc2-3)cc1")
"inactive"
>>> label_class("CN1C(=O)c2cc([N+](=O)[O-])ccc2[C@H]2C(=O)c3cc4c(cc3[C@H]21)OCO4")
"active"
>>> label_class("CO/N=C(\\COc1ccc2c(c1)oc(=O)c1cc(OC)ccc12)c1cccc(OC)c1")
"inactive"
>>> label_class("Cn1ccnc1C(=O)/C=C/c1ccc(C(=O)Nc2ccccc2O)cc1")
"inactive"

[in] Outcome logged for CCN(CC)CCCNc1nc2ccccc2c2c(=O)c3cc(Cl)ccc3sc12 in this assay:
[out] inactive

[in] Outcome logged for COc1cc(C2CC(c3ccc(Nc4ccnc5cc(Cl)ccc45)cc3)=NN2C=O)cc(OC)c1OC (stereo not given) in this assay:
[out] inactive

[in] Outcome logged for O=C(N/N=c1/ccoc2cccnc12)N1CCN(c2ncccn2)CC1 in this assay:
[out] active

[in] Outcome logged for COc1cc(/C=C/C(=O)C(C(=O)/C=C/c2ccc(OC(=O)CCNc3nnc(C)s3)c(OC)c2)C(=O)CCNc2nnc(C)s2)ccc1OC(=O)CCNc1nnc(C)s1 in this assay:
[out] inactive

[in] Outcome logged for COc1cc(-n2cc(-c3ccc(F)cc3)[nH]c2=S)cc(OC)c1OC in this assay:
[out] inactive

[in] Outcome logged for NC(N)=N/N=C(/c1ccccc1)c1ccc(Cl)cc1 in this assay:
[out] inactive

[in] Outcome logged for CCCCCCCCCCCCSC(=NC)NC in this assay:
[out] inactive

[in] Outcome logged for COc1ccc(Cn2cnc3cc(C(=O)Nc4cccc5ccccc45)ccc32)c(OC)c1 in this assay:
[out] active

[in] Outcome logged for O=C1/C(=C/c2ccc([N+](=O)[O-])o2)Oc2ccccc21 in this assay:
[out] inactive

[in] Outcome logged for CC1(C)N=C(N)N=C(N)N1c1ccc(OCC(=O)N2CCOCC2)c(Cl)c1 in this assay:
[out] inactive

[in] Outcome logged for COc1ccc2c(c1)C(=O)/C(=C/c1ccc([N+](=O)[O-])s1)O2 in this assay:
[out] inactive

[in] Outcome logged for COc1cc(OC)c2cc(C(=O)O)c(=O)oc2c1 in this assay:
[out] inactive
